# STUDY SYSTEM: T1, TNFR1 (Homo sapiens, UniProt P19438)
# T1 chain: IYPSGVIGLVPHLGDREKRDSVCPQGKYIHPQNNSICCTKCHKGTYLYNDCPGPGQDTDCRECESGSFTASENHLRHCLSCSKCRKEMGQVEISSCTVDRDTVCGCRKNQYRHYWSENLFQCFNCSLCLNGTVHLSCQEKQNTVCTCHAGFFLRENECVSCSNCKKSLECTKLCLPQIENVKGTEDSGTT
# TEST: yeast display SC50

BINDER	QUANTITY UNIT	apparent Kd (screen)
R14M (designed binder) MTLQELLREEALRMAEAEAFRYALELLAEKFPEQKEYLLDLAEEIESQIRSLSGVDVEDVRKFLDKEWAWVKELLAEHPAELAEVEAARAARLAELRAEVEAKVAA	pM	718
T2A (designed binder) MALQELLREEALRRAEAEAFRYALELLAEKFPEQKEYLLDLAEEIESQIRSLSGVDVEDVRKFLDKEWAWVKELLAEHPAELAEVEAARAARLAELRAEVEAKVAA	pM	790
